- system: T1, soluble extracellular domain of human IL-5 receptor alpha subunit (sIL-5Rα) (human, UniProt Q01344)
- T1 construct: human IL-5 receptor alpha subunit (IL-5Rα, CD125), extracellular domain, residues 21–333; subcloned from a cDNA of residues 1–420; Expressed from the pSecTag2A vector; migrates at ~50 kDa (glycosylated); A biotinylated form (BirA) was used only for library screening; also called sIL-5α; CD125; source: HEK293F, transiently transfected, purified (Ni-NTA); not shown: Avi, C-terminal, kept; His6, …
- T1 sequence (Q01344 21-333): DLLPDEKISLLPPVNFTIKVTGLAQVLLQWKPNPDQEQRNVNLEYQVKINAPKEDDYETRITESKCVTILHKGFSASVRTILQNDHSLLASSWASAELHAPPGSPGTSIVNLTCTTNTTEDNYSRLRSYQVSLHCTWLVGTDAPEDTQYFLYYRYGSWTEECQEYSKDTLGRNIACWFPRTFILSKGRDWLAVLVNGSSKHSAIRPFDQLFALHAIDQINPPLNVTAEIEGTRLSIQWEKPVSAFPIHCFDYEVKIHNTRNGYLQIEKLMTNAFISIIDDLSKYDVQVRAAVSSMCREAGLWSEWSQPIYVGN
- protocol_details: BLI; Octet QKe, 30°C, 1× kinetics buffer in PBS pH 7.4; Ab immobilised on anti-human IgG Fc capture (AHC) biosensors, sIL-5Rα as analyte; association 300 s, dissociation 600 s; 1:1 binding model
- settings: both partners purified
quantity_name: Kd

| binder | quantity_name | result |
| --- | --- | --- |
| 5R65.10 (antibody, V domains shown, as the VH of m6 (5R65) with mutations in VH-CDR3 (Kabat residues 95–100d were randomised); no mutations in VL-CDR3; Human IgG1, kappa; selected as scFab by yeast display from the 5R65 CDR3 library under kinetic screening; source: HEK293F, purified (Protein A)) VH: QVQLVQSGAEVKKPGSSVKVSCKASGYTFTSYWINWVRQAPGQGLEWIGHIYPNKNENYYNHKFKDKATLTVDKSTNTAYMELSSLRSEDTAVYYCTREYYGRSYYAAMDYWGQGTTLTVSS VL: DIQMTQSPSTLSASVGDRVTITCKASQNVGTAVAWYQQKPGKAPKLLIYWASTRHTGVPDRFSGSGSGTDFTLTISSLQPDDFATYYCQQFGRYPYTFGSGTKVEVK | Kd | 8.25 nM |
| 5R65.7 (antibody, V domains shown, as the VH of m6 (5R65) with mutations in VH-CDR3 (Kabat residues 95–100d were randomised); no mutations in VL-CDR3; Human IgG1, kappa; selected as scFab by yeast display from the 5R65 CDR3 library under kinetic screening; also called 5R65.7 Ab; source: HEK293F, purified (Protein A)) VH: QVQLVQSGAEVKKPGSSVKVSCKASGYTFTSYWINWVRQAPGQGLEWIGHIYPNKNENYYNHKFKDKATLTVDKSTNTAYMELSSLRSEDTAVYYCTREFYGRQYYQAMDYWGQGTTLTVSS VL: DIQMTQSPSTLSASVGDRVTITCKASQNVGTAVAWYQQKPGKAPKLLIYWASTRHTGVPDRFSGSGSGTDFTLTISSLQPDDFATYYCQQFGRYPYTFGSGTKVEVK | Kd | 4.64 nM |
